Experiment: Water retention evaluation (moisture reduction rate)
Type: physicochemical
Conditions: left until the moisture content remained unchanged; based on final moisture content
Procedure: 80 wt. % aqueous solutions of the formulations (organic salts) of the working examples 428 to 459 and comparative examples 1 to 5 in Tables 2A and 2B were prepared, and the water contents were measured using a Karl Fischer moisture meter (CA-200 manufactured by Mitsubishi Chemical Analytech Co., Ltd.). It was confirmed that the water contents of them were 20.0 wt. % (moisture content before test: A). […]
Readout label: Presence or absence of hydrates

Record excerpt, results attached:
{"Compound": "CCCCn1cc[n+](C)c1.F[B-](F)(F)F", "Result": "Absent"}
{"Compound": "N[C@@H](CO)C(=O)O.O=C(O)[C@H](O)[C@@H](O)[C@H](O)[C@H](O)CO", "Result": "Present"}
{"Compound": "NCC(=O)O.O=C(O)CC(O)(CC(=O)O)C(=O)O", "Result": "Present"}
{"Compound": "CC(O)C(=O)[O-].[K+] (centres unmarked)", "Result": "Absent"}

Q. # return recorded Presence or absence of hydrates for input NCCCC(=O)O.O=C(O)[C@H](O)[C@@H](O)[C@H](O)[C@H](O)CO
A. Present

Sourced from patent US20250186321A1
